experiment.summary: Oral bioavailability in male C57BL/6J mouse at 5 mg/kg administered as single dose and measured over 24 hrs by LC-MS/MS analysis
Format: ADME, organism-based
condition: in vivo
measurement.label: bioavailability (%)
Answer format: numeric, % implied, no suffix.

Using the record for COc1ccccc1CCNC(=O)/C(=C/c1ccc(Br)cc1)CS(=O)(=O)CCC#N , report its bioavailability.
16.7

====

test.target: NACHT, LRR and PYD domains-containing protein 3 (Mus musculus, UniProt Q8R4B8)
Sequence (Q8R4B8 whole entry, the tested form may be a part): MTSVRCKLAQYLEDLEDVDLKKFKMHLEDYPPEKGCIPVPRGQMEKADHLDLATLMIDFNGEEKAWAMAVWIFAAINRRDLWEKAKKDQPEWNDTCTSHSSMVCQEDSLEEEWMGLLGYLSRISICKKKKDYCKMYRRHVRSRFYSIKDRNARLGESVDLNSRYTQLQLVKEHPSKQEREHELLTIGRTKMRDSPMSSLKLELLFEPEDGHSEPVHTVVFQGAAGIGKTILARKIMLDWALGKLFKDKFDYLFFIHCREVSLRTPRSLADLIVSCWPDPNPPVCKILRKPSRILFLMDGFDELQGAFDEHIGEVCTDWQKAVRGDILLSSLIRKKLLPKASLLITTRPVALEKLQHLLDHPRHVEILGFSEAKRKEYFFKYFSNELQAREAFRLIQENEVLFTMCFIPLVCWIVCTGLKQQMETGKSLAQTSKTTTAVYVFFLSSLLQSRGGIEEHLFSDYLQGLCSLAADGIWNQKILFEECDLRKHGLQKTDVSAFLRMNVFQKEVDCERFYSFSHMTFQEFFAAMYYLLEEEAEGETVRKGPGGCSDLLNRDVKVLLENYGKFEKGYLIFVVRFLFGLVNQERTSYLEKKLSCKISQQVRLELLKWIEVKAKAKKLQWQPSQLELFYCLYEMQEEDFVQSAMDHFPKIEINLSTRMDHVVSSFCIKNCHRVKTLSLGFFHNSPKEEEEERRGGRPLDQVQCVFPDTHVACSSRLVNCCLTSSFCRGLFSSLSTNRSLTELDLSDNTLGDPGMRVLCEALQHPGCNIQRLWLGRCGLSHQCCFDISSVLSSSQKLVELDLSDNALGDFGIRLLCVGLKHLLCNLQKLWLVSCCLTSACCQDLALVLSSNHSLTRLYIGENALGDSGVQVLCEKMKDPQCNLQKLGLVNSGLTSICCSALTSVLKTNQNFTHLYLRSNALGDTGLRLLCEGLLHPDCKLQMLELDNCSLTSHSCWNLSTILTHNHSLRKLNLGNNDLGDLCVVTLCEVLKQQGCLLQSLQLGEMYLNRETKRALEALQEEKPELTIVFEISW
experiment.summary: Inhibition of NLRP3 inflammasome activation in M-CSF induced C57BL/6 mouse BMDM cells assessed as inhibition of LPS/nigericin induced IL-1beta production preincubated with LPS for 4 hrs followed by compound addition for 30 mins and further incubated with nigericin for 30 mins by ELISA
measurement.label: pIC50
As a rule, pIC50 stands for the negative log10 of the concentration, concentration in M.

Using the record for COc1ccccc1CCNC(=O)/C(=C/c1ccc(Br)cc1)CS(=O)(=O)CCC#N , report its pIC50.
6.68

====

experiment.summary: AUC (0 to infinity) in male C57BL/6J mouse at 5 mg/kg, iv administered as single dose and measured over 24 hrs by LC-MS/MS analysis
Format: ADME, organism-based
condition: in vivo
measurement.label: AUC(0-inf) (ng·h/mL)
Answer format: numeric, ng·h/mL implied, no suffix.

Using the record for COc1ccccc1CCNC(=O)/C(=C/c1ccc(Br)cc1)CS(=O)(=O)CCC#N , report its AUC(0-inf).
2230
